Record type: deltaTm measurement. Applies to: Ephrin type-A receptor 5 (Homo sapiens) (UniProt P54756)
Response body: numeric value in K, unit text excluded.

Here are 3 molecules together with their reported answers.
1. COc1cc(-c2cnc3nc2NCCCNS(=O)(=O)c2cc(ccc2OC)N3)ccc1F
4.7
2. COc1cc(-c2cnc3nc2NCCCNS(=O)(=O)c2cccc(c2)N3)c(F)cc1Cl
6
3. COc1cc(-c2cnc3nc2NCCCNS(=O)(=O)c2cccc(c2)N3)cc(C(F)(F)F)c1
1.3

Item: O=S1(=O)NCCCNc2nc(ncc2-c2ccc(F)c(Cl)c2)Nc2cccc1c2 Test system: Ephrin type-A receptor 5 (Homo sapiens) (UniProt P54756) Read-out: deltaTm Value: ?
5.7

Would you kindly repeat that for COc1cc(-c2cnc3nc2NCCCNS(=O)(=O)c2cc(ccc2C)N3)ccc1F ?
5.5

Would you kindly repeat that for O=S1(=O)NCCCNc2nc(ncc2-c2ccc(F)c(C(F)(F)F)c2)Nc2cccc1c2 ?
1.6

Would you kindly repeat that for COc1cc(-c2cnc3nc2NCCCNS(=O)(=O)c2cccc(c2)N3)cc(OC)c1OC ?
2.9

Would you kindly repeat that for O=S1(=O)NCCCNc2nc(ncc2-c2ccc(F)c(O)c2)Nc2cccc1c2 ?
4.1

Would you kindly repeat that for O=S1(=O)NCCCNc2nc(ncc2-c2cc(Cl)c(Cl)cc2F)Nc2cccc1c2 ?
5.6

Would you kindly repeat that for COc1cc(-c2cnc3nc2NCCCNS(=O)(=O)c2cccc(c2)N3)ccc1C#N ?
6.2

====

# SYSTEM_UNDER_TEST: Vascular endothelial growth factor receptor 1 (Homo sapiens)
# Sequence (P17948 whole entry): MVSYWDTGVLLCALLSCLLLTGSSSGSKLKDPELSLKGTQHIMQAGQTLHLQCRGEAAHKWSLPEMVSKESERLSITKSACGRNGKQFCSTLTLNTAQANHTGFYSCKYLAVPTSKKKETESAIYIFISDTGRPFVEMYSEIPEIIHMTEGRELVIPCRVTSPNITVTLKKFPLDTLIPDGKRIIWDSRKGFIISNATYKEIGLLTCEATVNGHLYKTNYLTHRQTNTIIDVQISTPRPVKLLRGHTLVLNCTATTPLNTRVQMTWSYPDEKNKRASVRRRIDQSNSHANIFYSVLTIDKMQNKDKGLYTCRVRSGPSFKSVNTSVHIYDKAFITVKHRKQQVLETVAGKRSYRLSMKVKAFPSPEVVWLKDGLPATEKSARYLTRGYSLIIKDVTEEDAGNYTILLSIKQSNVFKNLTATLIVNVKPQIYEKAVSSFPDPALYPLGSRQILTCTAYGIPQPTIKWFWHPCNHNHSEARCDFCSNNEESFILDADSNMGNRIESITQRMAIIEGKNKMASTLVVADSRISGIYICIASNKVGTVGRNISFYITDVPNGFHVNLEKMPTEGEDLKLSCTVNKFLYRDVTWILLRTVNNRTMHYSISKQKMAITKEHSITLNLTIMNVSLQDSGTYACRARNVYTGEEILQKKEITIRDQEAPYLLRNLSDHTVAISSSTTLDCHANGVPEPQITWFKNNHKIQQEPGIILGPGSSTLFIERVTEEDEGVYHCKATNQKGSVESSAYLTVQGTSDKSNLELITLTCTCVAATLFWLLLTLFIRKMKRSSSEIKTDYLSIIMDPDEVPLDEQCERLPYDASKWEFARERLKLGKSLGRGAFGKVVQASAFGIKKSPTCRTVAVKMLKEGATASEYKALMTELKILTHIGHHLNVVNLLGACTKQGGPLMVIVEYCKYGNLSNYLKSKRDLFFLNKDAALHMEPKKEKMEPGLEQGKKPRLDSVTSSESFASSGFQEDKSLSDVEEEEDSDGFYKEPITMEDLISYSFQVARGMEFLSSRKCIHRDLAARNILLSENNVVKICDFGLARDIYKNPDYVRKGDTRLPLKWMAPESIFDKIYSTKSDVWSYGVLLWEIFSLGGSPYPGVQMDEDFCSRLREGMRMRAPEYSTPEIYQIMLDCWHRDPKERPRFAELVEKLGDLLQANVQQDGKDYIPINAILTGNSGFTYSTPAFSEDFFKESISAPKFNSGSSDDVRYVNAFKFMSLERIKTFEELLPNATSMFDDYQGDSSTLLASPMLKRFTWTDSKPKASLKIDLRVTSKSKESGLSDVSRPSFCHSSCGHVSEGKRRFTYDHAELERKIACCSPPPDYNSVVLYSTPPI
# PROTOCOL_DESCRIPTION: Induction of stabilization of recombinant FLT1 (unknown origin) assessed as change in melting temperature by differential scanning fluorimetry assay
REPORTED_ENDPOINT: deltaTm (K)
Response body: numeric value in K, unit text excluded.

1. COc1cc(-c2cnc3nc2NCCCNS(=O)(=O)c2cccc(c2)N3)cc(C(F)(F)F)c1
5.3

Item: COc1cc(-c2cnc3nc2NCCCNS(=O)(=O)c2cccc(c2)N3)ccc1C#N Test system: Vascular endothelial growth factor receptor 1 (Homo sapiens) Read-out: deltaTm Value: ?
1.1

Would you kindly repeat that for COc1cc(-c2cnc3nc2NCCCNS(=O)(=O)c2cc(ccc2OC)N3)ccc1F ?
1.3

Would you kindly repeat that for O=S1(=O)NCCCNc2nc(ncc2-c2cccc(Cl)c2F)Nc2cccc1c2 ?
6

====

half-life at 10 µM: recorded values
# PROTOCOL_DESCRIPTION: Metabolic stability in Sprague-Dawley rat liver microsomes assessed as half life at 10 uM preincubated for 5 mins followed by NADPH regenerating system measured upto 60 min by HPLC analysis
# Type: ADME, Microsome
# DETAILS: time < 65 min
Response body: numeric value in h, unit text excluded.

1. COc1cc(-c2cnc3nc2NCCCNS(=O)(=O)c2cccc(c2)N3)ccc1F
6.6

Fill in: half-life at 10 µM of COc1cc(-c2cnc3nc2NCCCNS(=O)(=O)c2cccc(c2)N3)ccc1Br is ___
4.6

====

# SYSTEM_UNDER_TEST: Ephrin type-B receptor 1 (Homo sapiens) (UniProt P54762)
# Sequence (P54762 whole entry): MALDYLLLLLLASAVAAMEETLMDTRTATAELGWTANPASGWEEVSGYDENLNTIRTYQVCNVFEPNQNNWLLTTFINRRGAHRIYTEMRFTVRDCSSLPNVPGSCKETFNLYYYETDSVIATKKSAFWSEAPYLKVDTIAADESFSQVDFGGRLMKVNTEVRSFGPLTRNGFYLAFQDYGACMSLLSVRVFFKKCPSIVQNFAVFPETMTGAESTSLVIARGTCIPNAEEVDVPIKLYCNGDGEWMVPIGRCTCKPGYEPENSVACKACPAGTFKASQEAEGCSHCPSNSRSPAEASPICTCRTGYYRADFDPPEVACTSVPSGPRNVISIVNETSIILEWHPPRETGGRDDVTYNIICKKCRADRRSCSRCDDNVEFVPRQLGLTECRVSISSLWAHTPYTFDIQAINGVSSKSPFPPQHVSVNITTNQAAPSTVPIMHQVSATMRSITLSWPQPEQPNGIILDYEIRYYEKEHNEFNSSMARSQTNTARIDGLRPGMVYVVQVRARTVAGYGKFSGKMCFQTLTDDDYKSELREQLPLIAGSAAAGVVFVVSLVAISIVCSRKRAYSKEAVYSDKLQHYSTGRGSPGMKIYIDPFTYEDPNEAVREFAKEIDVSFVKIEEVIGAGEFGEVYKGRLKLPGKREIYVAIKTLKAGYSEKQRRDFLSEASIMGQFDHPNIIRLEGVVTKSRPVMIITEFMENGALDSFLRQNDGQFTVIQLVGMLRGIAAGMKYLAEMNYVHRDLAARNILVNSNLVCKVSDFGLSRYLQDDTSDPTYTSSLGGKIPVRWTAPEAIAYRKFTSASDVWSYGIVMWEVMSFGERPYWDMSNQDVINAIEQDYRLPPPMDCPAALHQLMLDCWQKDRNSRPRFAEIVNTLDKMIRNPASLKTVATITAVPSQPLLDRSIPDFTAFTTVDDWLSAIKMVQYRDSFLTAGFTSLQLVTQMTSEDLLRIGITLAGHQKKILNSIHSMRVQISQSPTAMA
# PROTOCOL_DESCRIPTION: Induction of stabilization of recombinant EPHB1 (unknown origin) assessed as change in melting temperature by differential scanning fluorimetry assay
The label criterion met is reserved for deltaTm strictly under 3 K; criterion not met covers values equal to or above it.

Given the entry COc1cc(-c2cnc3nc2NCCCNS(=O)(=O)c2cccc(c2)N3)cc(F)c1F , would its reported deltaTm be below 3 K?
criterion met

Would you kindly repeat that for COc1cc(-c2cnc3nc2NCCCNS(=O)(=O)c2cccc(c2)N3)c(F)cc1Cl ?
criterion not met

Would you kindly repeat that for COc1cc(-c2cnc3nc2NCCCNS(=O)(=O)c2cc(ccc2OCCN2CCOCC2)N3)ccc1F ?
criterion not met

Would you kindly repeat that for COc1cc(-c2cnc3nc2NCCCNS(=O)(=O)c2cccc(c2)N3)cc(OC)c1OC ?
criterion met
